PROTOCOL: Dose-response cell viability assay in normal astrocytes
Type: cell-based, human
MEASUREMENT CONTEXT: human, primary human astrocytes (NHA), NHA; QST 10 nM (log[nM] 1); 3 days; read-out: Cell viability (fraction of DMSO control)
PROPERTY MEASURED: viability at 3 days, 10 nM (%)
// units = %; emit number, no label

Return viability at 3 days, 10 nM for the following molecule: "Cn1cc(CNCC2CCN(c3ncc(C(=O)NO)cn3)CC2)c2ccccc21"
60.9

###

PROTOCOL: Plasma pharmacokinetics by route of administration (IP, SC, OG)
Assay type: in vivo, athymic nude mice
MEASUREMENT CONTEXT: male, athymic nude (Foxn1nu), mouse, plasma; SC; single dose 10 mg/kg; athymic nude mice; read-out: AUClast (plasma)
PROPERTY MEASURED: AUC(0-t) (µM·h)
Please reply with the bare figure in µM·h and do not write the unit itself.

Answer with the recorded AUC(0-t) for the compound listed here: "Cn1cc(CNCC2CCN(c3ncc(C(=O)NO)cn3)CC2)c2ccccc21"
1.19

###

PROTOCOL: Total and unbound QST in tumor and contralateral brain at survival end point, orthotopic GB126 PDX
Type: in vivo
MEASUREMENT CONTEXT: athymic nude, mouse, plasma, intraperitoneal, 10 mg/kg, Combo cohort; mean; read-out: Unbound QST, Plasma, Mean
PROPERTY MEASURED: concentration at 3 h
Please report the result as a number followed by the unit.

Give concentration at 3 h for Cn1cc(CNCC2CCN(c3ncc(C(=O)NO)cn3)CC2)c2ccccc21 [QST, quisinostat]
55.7 nM

###

PROTOCOL: Total and unbound QST in tumor and contralateral brain at survival end point, orthotopic GB126 PDX
Format: in vivo
MEASUREMENT CONTEXT: athymic nude, mouse, tumor, intraperitoneal, 10 mg/kg, QST cohort; mean; read-out: Total QST, Tumor, Mean
PROPERTY MEASURED: concentration at 3 h (nM)
Entry rule: numbers only, all in nM.

Report concentration at 3 h, nothing else, for this compound: Cn1cc(CNCC2CCN(c3ncc(C(=O)NO)cn3)CC2)c2ccccc21 [QST, quisinostat]
1430

###

PROTOCOL: Total QST levels in plasma and flank tumors (LC-MS/MS)
Format: in vivo
MEASUREMENT CONTEXT: athymic nude, mouse, flank tumor, intraperitoneal, 10 mg/kg, Combination (QST+IR) cohort; read-out: [QST] total, flank tumor, Mean
PROPERTY MEASURED: concentration at 2 h (nM)
Please reply with the bare figure in nM and do not write the unit itself.

Return the recorded concentration at 2 h value; entry: Cn1cc(CNCC2CCN(c3ncc(C(=O)NO)cn3)CC2)c2ccccc21 [QST, quisinostat]
501

###

PROTOCOL: Total QST levels in plasma and flank tumors (LC-MS/MS)
Type: in vivo
MEASUREMENT CONTEXT: athymic nude, mouse, plasma, intraperitoneal, 10 mg/kg, Combination (QST+IR) cohort; read-out: [QST] total, plasma, Mean
PROPERTY MEASURED: concentration at 2 h (nM)
Supply the numeric figure in nM, leaving out any unit text.

Determine its reported concentration at 2 h: "Cn1cc(CNCC2CCN(c3ncc(C(=O)NO)cn3)CC2)c2ccccc21"
276

###

Test system: GB282 patient-derived GSC line
PROTOCOL: CellTiter-Glo dose-response cell viability assay
Assay type: cell-based, human
MEASUREMENT CONTEXT: Homo sapiens; GB282; 3-5 days
PROPERTY MEASURED: IC50 (nM)
// return numeric value only (unit: nM, not printed)

Determine from records and report IC50 for "Cn1cc(CNCC2CCN(c3ncc(C(=O)NO)cn3)CC2)c2ccccc21"
66
